# target.under.test: human PRMT6 (Homo sapiens)
# Sequence (Q96LA8 with tags, fused parts or gaps): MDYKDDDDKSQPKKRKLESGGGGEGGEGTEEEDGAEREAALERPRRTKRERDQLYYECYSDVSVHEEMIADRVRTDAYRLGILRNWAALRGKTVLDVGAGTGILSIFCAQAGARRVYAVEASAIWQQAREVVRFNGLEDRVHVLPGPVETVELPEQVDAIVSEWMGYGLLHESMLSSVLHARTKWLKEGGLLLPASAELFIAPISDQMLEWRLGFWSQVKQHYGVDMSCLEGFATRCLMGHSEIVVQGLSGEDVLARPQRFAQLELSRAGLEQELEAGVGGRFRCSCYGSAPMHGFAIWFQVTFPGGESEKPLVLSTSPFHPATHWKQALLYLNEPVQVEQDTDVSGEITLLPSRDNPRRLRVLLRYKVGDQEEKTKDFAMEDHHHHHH
# protocol: biochemical
# test.parameters: biochemical evaluation, peptide substrate; read-out: PRMT6 IC50

compound	IC50
CNCCN(C)Cc1n[nH]c2ccc(Oc3ccccc3OC(C)C)cc12 [Compound 56]	101 to 1000 nM
CN(CCN)Cc1n[nH]c2ccc(OCc3ccccc3)cc12 [Compound 1B]	< 100 nM
CNCCN(C)Cc1n[nH]c2ccc(N3CCCCC3)cc12 [Compound 46]	< 100 nM
CNCCN(C)Cc1n[nH]c2ccc(Oc3cccc(C#N)c3)cc12 [Compound 28]	101 to 1000 nM
CNCCN(C)Cc1n[nH]c2ccc(OC)cc12 [Compound 35]	3010 to 10000 nM
CNCCN(C)Cc1n[nH]c2ccc(OCc3cccc(NC(C)=O)c3)cc12 [Compound 70]	< 100 nM
CNCCN(C)Cc1n[nH]c2ccc(OCc3cccc(C#N)c3)cc12 [Compound 14]	< 100 nM
CNCCN(C)Cc1n[nH]c2ccc(OC(C)C)cc12 [Compound 64]	< 100 nM
CNCCN(C)Cc1n[nH]c2ccc(Oc3cccc(OC(C)C)c3)cc12 [Compound 67]	< 100 nM
CNCCN(C)Cc1c2cc(OCc3ccc(C#N)cc3)ccc2nn1C(C)C [Compound 34]	3010 to 10000 nM
CNCCN(C)Cc1n[nH]c2ccc(OCc3cccc(C(N)=O)c3)cc12 [Compound 66]	< 100 nM
CNCCN(C)Cc1n[nH]c2ccc(Oc3ccccc3OC)cc12 [Compound 24]	101 to 1000 nM
CNCCN(C)Cc1n[nH]c2ccc(Oc3ccccc3C(F)(F)F)cc12 [Compound 49]	3010 to 10000 nM
CNCCN(C)Cc1n[nH]c2ccc(Oc3ccccc3)cc12 [Compound 10]	101 to 1000 nM
CC(C)COc1ccc2[nH]nc(CN(C)CCN)c2c1 [Compound 2]	101 to 1000 nM
CNCCN(C)Cc1n[nH]c2ccc(OCCc3ccccc3)cc12 [Compound 7]	< 100 nM
CNCCN(C)Cc1n[nH]c2ccc(OCCCOC)cc12 [Compound 6]	< 100 nM
CNCCN(C)Cc1nn(C2CCN(C(C)=O)CC2)c2ccc(OCc3ccc(C#N)cc3)cc12 [Compound 38]	101 to 1000 nM
CNCCN(C)Cc1n[nH]c2ccc(OC3CCCC3)cc12 [Compound 11]	< 100 nM
CNCCN(C)Cc1nn(C)c2ccc(OCc3ccc(C#N)cc3)cc12 [Compound 32]	< 100 nM
CNCCN(C)Cc1c2cc(OCc3ccc(C#N)cc3)ccc2nn1C1CCOCC1 [Compound 53]	1010 to 3000 nM
CNCCN(C)Cc1n[nH]c2ccc(OCc3cccc(C(F)(F)F)c3)cc12 [Compound 72]	< 100 nM
CNCCN(C)Cc1n[nH]c2ccc(Oc3ccccc3C)cc12 [Compound 60]	101 to 1000 nM
CNCCN(C)Cc1n[nH]c2ccc(OCc3ccc(C(N)=O)cc3)cc12 [Compound 69]	< 100 nM
CNCCN(C)Cc1n[nH]c2ccc(Oc3cccc(OC)c3)cc12 [Compound 22]	< 100 nM
CNCCN(C)Cc1n[nH]c2ccc(Oc3ccc(C#N)cc3)cc12 [Compound 37]	101 to 1000 nM
CNCCN(C)Cc1n[nH]c2ccc(OCc3ccc(C(C)=O)cc3)cc12 [Compound 23]	< 100 nM
CNCCN(C)Cc1n[nH]c2ccc(Oc3ccc(OC(C)C)cc3)cc12 [Compound 61]	101 to 1000 nM
CNCCN(C)Cc1n[nH]c2ccc(Oc3ccc(C(F)(F)F)cc3)cc12 [Compound 39]	101 to 1000 nM
CCCOc1ccc2[nH]nc(CN(C)CCNC)c2c1 [Compound 65]	< 100 nM
CNCCN(C)Cc1n[nH]c2cccc(OCc3ccccc3)c12 [Compound 21]	< 100 nM
CNCCN(C)Cc1n[nH]c2ccc(O)cc12 [Compound 36]	1010 to 3000 nM
